test: Luminescence Cell-Based Dose Confirmation HTS to Identify Activators of 5'UTR Stem-Loop Driven Alpha-Synuclein mRNA Translation in H4 Neuroglioblastoma Cells. [Related pubchem assays: 1829 (Project Summary), 1814 (Primary HTS)]; format: functional
The source made the active and inactive calls.
This listing pairs molecules with measured EC50.

Worked set:
[O-][n+]1c2c([n+]([O-])c3cc(N4CCCC4)c(F)cc31)CCCC2	> 60 µM (not active)
O=C(Cn1ccs/c1=N/C(=O)C(F)(F)F)c1ccccc1	56.9 µM (active)
Cc1csc(C(C#N)C(=O)c2cc3ccccc3o2)n1 (stereo not drawn)	< 0.1 µM (active)
Clc1ccccc1-c1nnc2sc(-c3ccc4c(c3)OCO4)nn12	> 120 µM (not active)

Lab note: measured EC50 of CC(C)c1cc2c(c(O)c1O)[C@@]13CCCC(C)(C)C1CC2OC3=O (stereo partly drawn) was 71.2 µM (active)

EC50 recorded for this molecule, CC(C)(C)C1=CC=C(C(C)(C)C)C(=O)C1=O , is > 120 µM (not active)

Record COc1cc(/C=C2/C(=N)N3C=CSC3=NC2=O)ccc1OCCCOc1ccccc1C . Reported EC50: 5.59 µM (active)

Record C/C(=N\NC(=O)C1=NNC(=O)C1C)c1cccs1 (stereo not drawn) , field EC50: 13 µM (active)

* * *

# EC50 per record follows
molecular target: Protein RecA (Mycobacterium tuberculosis, UniProt P9WHJ3); assay: Fluorescence Cell-Free Homogeneous Dose Retest to Identify Inhibitors of RecA-Intein Splicing Activity. [Related pubchem assays (depositor defined):AID2097, AID2223, AID489010, AID492950]; type: functional
Calls of active or inactive are those of the source.

Some solved cases for reference:
CCOC(=O)c1cnc2ccc(C)cc2c1Sc1ccccc1	5.87 µM (active)
CC(C)CCn1c(N)c(C(=O)NCc2cccs2)c2nc3ccccc3nc21	3.04 µM (active)

Item: CC(c1ccc(O)cc1)(c1ccc(O)cc1)c1ccc(CCBr)cc1 | EC50: 9.45 µM (active)

In plain terms, COC(CN(C(=O)CCl)C(C(=O)NC1CCCCC1)c1ccc(C)cc1)OC (stereo unspecified) has a documented EC50 of 7 µM (active)

Lab note: measured EC50 of Cc1ccc(C)c(NC(=O)CSc2n[nH]c(-c3ccccn3)n2)c1 was > 380 µM (inactive)

Memo: CCCC(=O)N(C1CC(C)C(C#N)(C#N)C1(C#N)C#N)N(C)C (stereo unspecified) , reported EC50: 1.34 µM (active)

* * *

In what follows, each item is paired with its AC50 for Cytochrome P450 2C9 (Homo sapiens, UniProt P11712).

// known answers, use as guide
Cc1noc(C)c1C(=O)N1CCC2(CCCN(CC(C)C)C2)CC1	39.8 µM (inconclusive)
Cc1ccc(-n2c(CCC(=O)O)ccc2-c2cccs2)cc1C	7.08 µM (inconclusive)
COc1ccc(-c2cc(-c3c(O)c(OC)c4occc4c3OC)[nH]n2)cc1OC	39.8 µM (inconclusive)
c1ccc(C(c2ccccc2)N2CCC3(CCNCC3)CC2)cc1	31.6 µM (inconclusive)
O=C(O)c1ccccc1/C=N\N=C1c2ccccc2-c2ccccc21	7.94 µM (inconclusive)

Bench note, Cytochrome P450 2C9 (Homo sapiens, UniProt P11712): entry CCOC(=O)/C(C#N)=C\c1ccc(OCC(=O)Nc2ccc(C)cc2C)c(OC)c1 , its AC50 = 25.1 µM (inconclusive)

Measured AC50 for this entry COc1ccccc1CNS(=O)(=O)c1ccc2ncc(C(=O)O)c(O)c2c1 on Cytochrome P450 2C9 (Homo sapiens, UniProt P11712): 11.2 µM (inconclusive)

Summary: CC(=O)/C(=C\c1ccccc1F)C(=O)c1ccccc1 , Cytochrome P450 2C9 (Homo sapiens, UniProt P11712), AC50 = 6.31 µM (inconclusive)

CN(Cc1ccco1)c1ncncc1-c1cccc(NS(C)(=O)=O)c1 tested on Cytochrome P450 2C9 (Homo sapiens, UniProt P11712) gave AC50: 0.501 µM (inconclusive)

Tested on Cytochrome P450 2C9 (Homo sapiens, UniProt P11712): CCOc1ccc(NC(=O)CN2CCN(S(=O)(=O)c3ccc(Cl)cc3)CC2)cc1 . Observed AC50: 2 µM (inconclusive)

Record O=C(CCn1nc(-c2ccc(Cl)cc2)ccc1=O)NCc1ccccn1 ; system Cytochrome P450 2C9 (Homo sapiens, UniProt P11712); AC50 = 5.01 µM (inconclusive)

* * *

molecular target: Corticotropin-releasing factor receptor 2/Corticotropin-releasing factor-binding protein (Homo sapiens, UniProt P24387+Q13324); test: Dose Response confirmation of uHTS hits for small molecule antagonists of the CRF-binding protein and CRF-R2 receptor complex.; type: functional; details: read-out: IC50_Mean
Sequence (Q13324 whole entry): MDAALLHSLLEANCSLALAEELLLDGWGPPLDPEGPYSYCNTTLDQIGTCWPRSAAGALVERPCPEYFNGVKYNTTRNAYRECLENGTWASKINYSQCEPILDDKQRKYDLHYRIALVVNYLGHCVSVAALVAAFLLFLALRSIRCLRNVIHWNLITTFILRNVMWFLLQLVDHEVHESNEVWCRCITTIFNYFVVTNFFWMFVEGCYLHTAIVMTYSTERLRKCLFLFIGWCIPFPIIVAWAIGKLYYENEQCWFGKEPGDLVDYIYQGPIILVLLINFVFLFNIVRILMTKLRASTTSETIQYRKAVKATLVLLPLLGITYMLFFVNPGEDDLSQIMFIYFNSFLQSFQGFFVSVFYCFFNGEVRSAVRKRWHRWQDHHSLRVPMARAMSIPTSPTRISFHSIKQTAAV
Sequence (P24387 whole entry): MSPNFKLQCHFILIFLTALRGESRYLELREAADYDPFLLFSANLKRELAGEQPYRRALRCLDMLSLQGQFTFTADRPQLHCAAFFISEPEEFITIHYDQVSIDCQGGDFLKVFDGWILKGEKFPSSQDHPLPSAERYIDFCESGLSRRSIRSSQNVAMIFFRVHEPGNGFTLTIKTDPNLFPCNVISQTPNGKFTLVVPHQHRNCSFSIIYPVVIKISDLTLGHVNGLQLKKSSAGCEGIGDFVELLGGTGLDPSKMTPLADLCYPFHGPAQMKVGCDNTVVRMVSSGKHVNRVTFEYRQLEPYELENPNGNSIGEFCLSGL
Active and inactive are the calls of the source.
Your response should consist of one outcome taken from Y for active, N for inactive

The following compounds have reported results that may help.
O=C1NC(=S)S/C1=C\c1cccc([N+](=O)[O-])c1	Y
C=CCOc1ccc(/C=C2\SC(=S)N(C(C(=O)O)c3ccccc3)C2=O)cc1 (stereo not drawn)	Y
COc1cc2nc(SCc3c(C)noc3C)n(CCC3=CCCCC3)c(=O)c2cc1OC	N

## Task Assay outcome for CCCCCNC1=CC(=O)CC(c2ccccc2)C1 (stereo not drawn) : what was it?
## Result N

## Task Hey, what did the test say about Cc1nn(-c2ccccc2)c(NC(=O)c2cccs2)c(-c2ccccc2Cl)c1=O ?
## Result N

## Task Answer briefly: the call reported for CC1CCN(C(=O)C2CCN(S(=O)(=O)c3cccs3)CC2)CC1 in this assay.
## Result N

## Task Just curious, what result did COC(=O)C(CC(=O)Nc1cc(C)ccc1C)Nc1ccccc1OC (stereo not drawn) get here?
## Result N

## Task What outcome does the record of this test show for CCCCCCCCNS(=O)(=O)CCNCc1ccc(OC)cc1 ?
## Result N

* * *

target: Genome polyprotein (dengue virus type 2); experiment: flavivirus cap methylation enzyme inhibition – biochemical, confirmation dose response, primary screen (AID 588689); type: functional
Calls of active or inactive are those of the source.
IC50 by entry:

Study these solved cases before continuing.
Cc1ccccc1N1C(=O)C(Cl)=C(N2CCOCC2)C1=O	43.7 µM (active)
O=C(O)CCn1cc(C=C2C(=O)NC(=S)NC2=O)c(-c2ccccc2)n1	7.65 µM (active)
O=C1NC(=O)N(c2ccccc2F)C(=O)/C1=C/c1ccc(Oc2ccc([N+](=O)[O-])cn2)cc1	56.1 µM (active)
CC(C)c1cc2c(c(O)c1O)[C@@]13CCCC(C)(C)C1CC2OC3=O (stereo partly specified)	84.4 µM (active)
O=C(O)CCc1ccc(-c2ccc(Br)cc2)n1-c1ccc(O)cc1	> 100 µM (active)
C=CCOc1ccc(/C=C2\SC(=S)N(C(C(=O)O)c3ccccc3)C2=O)cc1 (stereo unspecified)	40.2 µM (active)

Form: compound = O=C1C(Cl)=C(N2CCCC2)C(=O)N1c1ccccc1F ; IC50 = 84.4 µM (active)

Reported IC50 for Cc1ccc(F)c(NC(=O)/C(C#N)=C(\O)c2ccc(C(C)(C)C)cc2)c1 was 32.6 µM (active)

Query O=C(Nc1cc(S(=O)(=O)N2CCOCC2)ccc1O)c1ccc2c(c1)S(=O)(=O)c1ccccc1C2=O yields IC50 of 49.6 µM (active)

Note to self: IC50 recorded for COc1ccc(/C=C2/C(=O)NC(=O)N(c3ccc(C)c(C)c3)C2=O)cc1CN1C(=O)c2ccccc2C1=O was 99.5 µM (active)

// sample COc1ccc(C(C2C(=O)CC(C)(C)CC2=O)C2C(=O)CC(C)(C)CC2=O)cc1 , its IC50 was 30.4 µM (active)

* * *

Target: Sentrin-specific protease 6 (Homo sapiens)
Sequence (Q9GZR1 whole entry): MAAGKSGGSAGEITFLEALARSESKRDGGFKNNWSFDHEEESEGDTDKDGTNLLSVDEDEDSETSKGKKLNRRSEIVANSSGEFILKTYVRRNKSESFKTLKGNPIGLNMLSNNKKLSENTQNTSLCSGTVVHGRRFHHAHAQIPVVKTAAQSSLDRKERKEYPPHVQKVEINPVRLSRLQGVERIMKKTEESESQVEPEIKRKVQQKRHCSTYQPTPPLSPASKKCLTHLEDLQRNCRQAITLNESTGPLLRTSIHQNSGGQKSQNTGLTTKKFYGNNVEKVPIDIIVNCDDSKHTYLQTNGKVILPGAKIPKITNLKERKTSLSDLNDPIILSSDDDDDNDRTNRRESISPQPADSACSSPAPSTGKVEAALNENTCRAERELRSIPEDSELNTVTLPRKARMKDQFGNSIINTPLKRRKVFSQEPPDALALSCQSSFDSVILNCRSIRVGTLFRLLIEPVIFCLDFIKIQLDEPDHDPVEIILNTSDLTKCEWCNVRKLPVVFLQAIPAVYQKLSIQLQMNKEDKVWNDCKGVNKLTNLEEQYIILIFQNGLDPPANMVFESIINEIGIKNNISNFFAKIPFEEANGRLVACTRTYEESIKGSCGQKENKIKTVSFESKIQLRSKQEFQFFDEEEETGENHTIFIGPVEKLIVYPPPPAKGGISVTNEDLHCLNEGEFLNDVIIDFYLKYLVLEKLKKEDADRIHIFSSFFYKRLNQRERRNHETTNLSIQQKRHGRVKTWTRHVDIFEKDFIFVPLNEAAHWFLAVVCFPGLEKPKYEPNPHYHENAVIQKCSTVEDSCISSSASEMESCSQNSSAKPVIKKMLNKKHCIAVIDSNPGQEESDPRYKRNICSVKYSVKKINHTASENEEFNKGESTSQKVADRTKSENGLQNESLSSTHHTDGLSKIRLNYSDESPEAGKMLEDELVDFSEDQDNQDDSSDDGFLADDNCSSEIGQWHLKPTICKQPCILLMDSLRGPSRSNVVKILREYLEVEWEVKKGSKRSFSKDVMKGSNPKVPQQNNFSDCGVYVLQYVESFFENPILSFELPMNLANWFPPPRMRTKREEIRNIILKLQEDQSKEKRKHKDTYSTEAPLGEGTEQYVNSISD
Assay: SAR Analysis of small molecule inhibitors of Sentrin-specific protease 6 (SENP6) using a Luminescent assay. [Related pubchem assays (depositor defined):AID2582, AID2599]
Format: functional
Activity calls are given as the source filed them.
Outcome field: choose from y = active, n = inactive

Solved entries:
Nc1ccc(-c2noc(/C=C/c3ccccc3)n2)cc1[N+](=O)[O-]	n
Cc1cccc(C(=O)Nc2scc(-c3ccc(Br)cc3)c2C(=O)O)c1	y
Oc1cccc(/C=N/Nc2cc(N3CCCC3)nc(N3CCCC3)n2)c1	y
Cc1ccc2nc(NC(=O)c3cc(=O)c4cc(C)c(C)cc4o3)sc2c1	n
Fc1cc(F)cc(-c2noc(/C=C/c3ccccc3Cl)n2)c1	n

Okay, now this compound:
## Task Hi team, can someone confirm the assay call for CC(C)CC(=O)Nc1ccc(-c2nc3cc(Cl)ccc3s2)cc1 ?
## Result n
